Collected purity values appear next to each entry.
experimental protocol: High temperature test (stability)
Format: physicochemical
test context: 60° C., 10 d, HPLC
measured property: purity (%)

compound	measurement
CCCCCCN(CCCCCC)c1ccc(-n2c(C)nc(C)cc2=O)cc1F.Cl [Example 2]	99.83
CCCCCCN(CCCCCC)c1ccc(-n2c(C)nc(C)cc2=O)cc1F.Cl [Example 1]	99.79
CCCCCCN(CCCCCC)c1ccc(-n2c(C)nc(C)cc2=O)cc1F.O=C(O)/C=C\C(=O)O [Example 8]	99.05
CCCCCCN(CCCCCC)c1ccc(-n2c(C)nc(C)cc2=O)cc1F.Cc1ccc(S(=O)(=O)O)cc1 [Example 6]	99.81
